Test: inhibitors of Toxoplasma growth in IFN-γ-primed HeLa – cell-based, ME49Luc, luciferase, 72 h, dose response (AID 1259418)
Settings: T. gondii ME49Luc in IFN-y HeLa, hits give low values, -100% = high-dose IFN-γ control wells; at 19.5 µM unless noted
Screen size: about 3,400 compounds; about 840 (25%) were called active. About 11% were inconclusive and are not listed. A selection follows. Results with a measured potency or affinity are listed apart.
RESULT TYPE: max activity

1) COc1cccc(C(=O)N2CCC3(CC2)Nc2ccc(C)c(C)c2-n2cccc23)c1; -8.8% [at 0.16 µM] (inactive)

Please supply max activity for each of the following items, keeping them in order.
1. Cc1cc(C2CCCN2C(=O)c2cc(C(F)(F)F)nn2C)on1 (stereo not given)
2. CN1CCC(N2CCN(c3ncccc3-c3nnc(-c4ccc(Cl)cc4)o3)CC2)CC1
3. COc1ccc(NC(=O)N2CCN(Cc3nc(-c4ccc(C)cc4)oc3C)CC2)cc1OC
4. CCOc1ccc(-c2nc(CN3CCN(C(=O)NCCc4ccccc4)CC3)c(C)o2)cc1

8.24% [at 1.35 µM] (inactive)
4.69% (inactive)
9.7% (inactive)
-9.01% [at 0.68 µM] (inactive)

Please supply max activity for each of the following items, keeping them in order.
1. O=C(NCc1cccnc1)C1CCN(Cc2cc3ccccc3n2Cc2ccccc2Cl)CC1
2. Cc1ccc(C)c(-c2coc(-c3ccc(NC(=O)Nc4ccccc4F)cc3)n2)c1
3. CCc1onc(C)c1C1CCCN1Cc1cn(CC)c2ccc(OC)cc12 (stereo not given)
4. CCOc1ccc(-c2nc3c(s2)CN(S(=O)(=O)c2ccc(F)cc2)CC3)cc1
5. COc1cccc(N(Cc2nc(-c3ccccc3)oc2C)S(=O)(=O)c2ccccc2)c1

1: -4.69% [at 1.35 µM] (inactive); 2: -23.6% [at 0.16 µM] (inactive); 3: -10.8% [at 0.35 µM] (inactive); 4: 36.2% (inactive); 5: -4.33% (inactive)

Please supply max activity for each of the following items, keeping them in order.
1. CCOc1ccc(-c2nc(CN3CCN(C(=O)Nc4cccc(OC)c4)CC3)c(C)o2)cc1
2. COc1ccc(-c2nc(N3CCC(C)CC3)c3ccccc3n2)cc1
3. COc1cccc(NC(=O)Nc2ccc(-c3nc(-c4ccccc4)co3)cc2)c1
4. Cc1ccc(C)c(-c2coc(-c3ccc(NC(=O)COc4ccccc4C)cc3)n2)c1

["16.9% [at 0.35 µM] (inactive)", "21.8% (inactive)", "66.2% (inactive)", "-11.5% (inactive)"]

Please supply max activity for each of the following items, keeping them in order.
1. CC(C)CC#Cc1ccc([C@H]2[C@@H](CO)N3C(=O)CN(C(=O)c4cccc(F)c4)C[C@@H]23)cc1
2. Cc1ccccc1-c1nc(CN2CCN(C(=O)Nc3ccccc3)CC2)c(C)o1
3. COc1cc(NC(=O)COc2nc(C)nc3ccccc23)cc(OC)c1OC
4. O=C(NCCN1CCCC1)C1CCN(Cc2cc3ccccc3n2Cc2ccccc2Cl)CC1
5. CCOc1ccc(NC(=O)Nc2ccc(-c3nc(-c4cc(C)ccc4C)co3)cc2)cc1
6. Cc1ccc2[nH]cc(CCNC(=O)c3cc(-c4ccccn4)nc4ccccc34)c2c1

1: 19.1% [at 10 µM] (inactive); 2: -12.3% [at 2.6 µM] (inactive); 3: 39.1% [at 0.35 µM] (inactive); 4: 6.81% (inactive); 5: -9.48% [at 1.35 µM] (inactive); 6: 11.1% (inactive)
